# system: HDAC 2 (Homo sapiens)
# Sequence (Q92769 whole entry): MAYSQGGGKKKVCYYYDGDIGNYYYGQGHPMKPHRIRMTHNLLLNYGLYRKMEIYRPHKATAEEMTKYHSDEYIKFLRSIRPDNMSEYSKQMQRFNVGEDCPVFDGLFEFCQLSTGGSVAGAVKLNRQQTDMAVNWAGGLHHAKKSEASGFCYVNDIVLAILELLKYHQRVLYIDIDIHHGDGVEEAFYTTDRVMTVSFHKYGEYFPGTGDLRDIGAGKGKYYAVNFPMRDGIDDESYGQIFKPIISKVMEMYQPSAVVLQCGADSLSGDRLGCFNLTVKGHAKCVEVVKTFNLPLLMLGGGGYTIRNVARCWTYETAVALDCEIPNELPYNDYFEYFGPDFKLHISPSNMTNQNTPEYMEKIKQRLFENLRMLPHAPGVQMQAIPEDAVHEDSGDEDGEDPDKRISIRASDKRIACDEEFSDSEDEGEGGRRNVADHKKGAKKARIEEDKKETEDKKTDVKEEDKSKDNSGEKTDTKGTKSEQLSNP
Measured IC50 of individual entries
Reply with a number, then the unit it belongs to.

smiles_structure=O=C(NO)c1ccc(CN(C(=O)N2CCOCC2)c2cccc(Br)c2)cc1 readout_type=IC50 reading="690 nM"

Now let's try a different one.
Bench note: what IC50 did "O=C(NO)c1ccc(CN(C(=O)N2CCOCC2)c2cccc(C(F)(F)F)c2)cc1" show? 4880 nM

---

# system: HDAC 6 (Homo sapiens, UniProt Q9UBN7)
# Sequence (Q9UBN7 whole entry): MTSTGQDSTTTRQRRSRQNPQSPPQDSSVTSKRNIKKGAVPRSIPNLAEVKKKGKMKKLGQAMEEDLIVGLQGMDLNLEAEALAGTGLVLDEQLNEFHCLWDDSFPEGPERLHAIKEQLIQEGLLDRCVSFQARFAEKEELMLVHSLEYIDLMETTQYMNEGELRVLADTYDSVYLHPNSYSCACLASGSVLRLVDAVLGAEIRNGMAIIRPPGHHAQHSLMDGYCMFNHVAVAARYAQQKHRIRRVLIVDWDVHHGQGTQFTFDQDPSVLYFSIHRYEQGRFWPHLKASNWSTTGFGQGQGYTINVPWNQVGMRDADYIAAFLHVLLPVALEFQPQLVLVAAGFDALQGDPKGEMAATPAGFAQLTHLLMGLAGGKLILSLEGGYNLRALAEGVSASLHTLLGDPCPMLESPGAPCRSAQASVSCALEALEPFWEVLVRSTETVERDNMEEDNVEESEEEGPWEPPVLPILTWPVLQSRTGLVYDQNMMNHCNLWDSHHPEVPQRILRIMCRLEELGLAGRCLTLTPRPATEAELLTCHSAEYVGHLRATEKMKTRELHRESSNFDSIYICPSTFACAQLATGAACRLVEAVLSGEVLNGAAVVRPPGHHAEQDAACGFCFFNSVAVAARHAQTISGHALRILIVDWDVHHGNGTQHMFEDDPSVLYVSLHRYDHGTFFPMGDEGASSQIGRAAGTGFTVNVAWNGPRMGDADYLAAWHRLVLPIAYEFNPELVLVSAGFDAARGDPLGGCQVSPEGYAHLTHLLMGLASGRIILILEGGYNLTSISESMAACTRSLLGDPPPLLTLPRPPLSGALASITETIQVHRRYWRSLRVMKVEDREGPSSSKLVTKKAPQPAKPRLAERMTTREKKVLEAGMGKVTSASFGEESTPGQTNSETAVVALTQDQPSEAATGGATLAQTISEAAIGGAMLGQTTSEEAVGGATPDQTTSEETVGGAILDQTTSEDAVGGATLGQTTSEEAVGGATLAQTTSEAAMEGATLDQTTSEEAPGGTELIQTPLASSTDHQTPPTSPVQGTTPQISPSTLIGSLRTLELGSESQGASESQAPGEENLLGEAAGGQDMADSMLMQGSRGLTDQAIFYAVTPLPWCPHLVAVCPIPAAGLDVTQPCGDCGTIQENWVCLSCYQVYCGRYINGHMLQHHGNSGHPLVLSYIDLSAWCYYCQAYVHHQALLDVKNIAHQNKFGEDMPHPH
# protocol: Test of HDAC activities, HDAC6 (fluorimetric)
# Format: biochemical
# Set-up: purchased Calbiochem 382180
# condition label: samples at 0.1, 1, 10, 100, 1000 nM; 37° C. 60 minutes; fluorescence Ex 390, Em 460; read-out: HDAC inhibitory activities, HDAC6
Measured pIC50 of individual entries
Remember the convention: pIC50 equals -log10 of concentration in molar.

Lab request: please report pIC50 under test system HDAC 6 (Homo sapiens, UniProt Q9UBN7) for CN1CCN(C(=O)N(Cc2ccc(C(=O)NO)cc2)c2cccc(-c3ccc4c(c3)OCO4)c2)CC1 [Compound 466] 8.52

Lab request: please report pIC50 under test system HDAC 6 (Homo sapiens, UniProt Q9UBN7) for COc1cccc(N2CCN(C(=O)N(Cc3ccc(C(=O)NO)cc3)c3cccc(C(F)(F)F)c3)CC2)c1 [Compound 684] 7.72

Lab request: please report pIC50 under test system HDAC 6 (Homo sapiens, UniProt Q9UBN7) for O=C(NO)c1ccc(CN(C(=O)N2CCCC2)c2ccccn2)cc1 [Compound 358] 8.05

Lab request: please report pIC50 under test system HDAC 6 (Homo sapiens, UniProt Q9UBN7) for C[C@@H]1CN(C(=O)N(Cc2ccc(C(=O)NO)cc2)c2cccc(C(F)(F)F)c2)C[C@H](C)N1Cc1ccccc1 [Compound 802] 8.03

Lab request: please report pIC50 under test system HDAC 6 (Homo sapiens, UniProt Q9UBN7) for CC1CN(C(=O)N(Cc2ccc(C(=O)NO)cc2)c2ncccn2)CC(C)O1 (stereo not shown) [Compound 313] 8.15

Lab request: please report pIC50 under test system HDAC 6 (Homo sapiens, UniProt Q9UBN7) for O=C(NO)c1ccc(CN(C(=O)N2CCN(c3ccc(F)cc3)CC2)c2ccc(F)c(Cl)c2)cc1 [Compound 482] 9.00

Lab request: please report pIC50 under test system HDAC 6 (Homo sapiens, UniProt Q9UBN7) for O=C(NO)c1ccc(CN(C(=O)N2CCC[C@H]2CO)c2cccc(-c3ccc4c(c3)OCO4)c2)cc1 [Compound 469] 7.92

Lab request: please report pIC50 under test system HDAC 6 (Homo sapiens, UniProt Q9UBN7) for CN1CCN(C(=O)N(Cc2ccc(C(=O)NO)cc2)c2cccc(Br)c2)CC1 [Compound 256] 9.00

Lab request: please report pIC50 under test system HDAC 6 (Homo sapiens, UniProt Q9UBN7) for O=C(NO)c1ccc(CN(C(=O)N2CCOCC2)c2ccc(C(F)(F)F)cc2)c(F)c1 [Compound 577] 8.92

Lab request: please report pIC50 under test system HDAC 6 (Homo sapiens, UniProt Q9UBN7) for O=C(NO)c1ccc(CN(C(=O)N2CCN(c3ccc(F)cc3)CC2)c2ccccn2)cc1 [Compound 357] 8.52

Lab request: please report pIC50 under test system HDAC 6 (Homo sapiens, UniProt Q9UBN7) for O=C(NO)c1ccc(CN(C(=O)N2CCC2)c2ccccn2)cc1 [Compound 377] 8.30

Lab request: please report pIC50 under test system HDAC 6 (Homo sapiens, UniProt Q9UBN7) for CN(C)c1ccc(-c2cccc(N(Cc3ccc(C(=O)NO)cc3)C(=O)N3CCOCC3)c2)cn1 [Compound 396] 8.30

Lab request: please report pIC50 under test system HDAC 6 (Homo sapiens, UniProt Q9UBN7) for O=C(NO)c1ccc(CN(C(=O)N2CCOCC2)c2cccc(-c3ccc4[nH]ccc4c3)c2)cc1 [Compound 263] 8.70
